Data credit: patent US20200131274A1

# TARGET: T1, human prostate specific membrane antigen (PSMA), full-length, on cells (human, UniProt Q04609 1-750)
# T1 construct: also called huPSMA; human PSMA
# T1 sequence (Q04609 whole entry): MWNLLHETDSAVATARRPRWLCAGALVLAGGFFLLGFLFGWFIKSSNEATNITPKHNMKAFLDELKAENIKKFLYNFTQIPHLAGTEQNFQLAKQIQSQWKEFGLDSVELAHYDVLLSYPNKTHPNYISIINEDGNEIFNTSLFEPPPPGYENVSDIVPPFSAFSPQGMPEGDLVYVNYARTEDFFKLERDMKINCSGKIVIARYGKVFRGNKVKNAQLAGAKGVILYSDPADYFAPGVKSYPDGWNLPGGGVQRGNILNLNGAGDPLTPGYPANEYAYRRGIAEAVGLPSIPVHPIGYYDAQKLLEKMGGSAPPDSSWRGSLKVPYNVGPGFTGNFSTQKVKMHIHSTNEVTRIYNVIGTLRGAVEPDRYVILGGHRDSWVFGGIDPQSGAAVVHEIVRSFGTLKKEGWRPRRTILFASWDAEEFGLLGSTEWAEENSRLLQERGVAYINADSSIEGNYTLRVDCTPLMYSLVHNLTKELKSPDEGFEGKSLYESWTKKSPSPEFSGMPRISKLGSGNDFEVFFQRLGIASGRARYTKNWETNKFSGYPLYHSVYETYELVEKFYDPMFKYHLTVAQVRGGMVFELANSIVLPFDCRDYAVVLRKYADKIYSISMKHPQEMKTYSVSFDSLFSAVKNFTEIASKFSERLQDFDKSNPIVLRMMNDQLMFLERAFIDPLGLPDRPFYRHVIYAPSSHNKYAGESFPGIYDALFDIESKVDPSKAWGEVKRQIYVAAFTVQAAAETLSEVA
# MEASUREMENT_NOTES: FMAT direct cell binding, DU145 PSMA cells
Rule for this label: 1.0 means EC50 is less than 0.09 nM; 0.0 means EC50 is at least 0.09 nM.

BINDER	ASSIGNED_CLASS
single VH domain antibody 2.14 (VHH, Human single VH domain antibody (Humabody); C-terminal His tag, residues not tied) VHH: EVQLVESGGGVVQPGRSLRLSCAASGFSFSGYGVHWVRQAPGKGLEWVAYISYDASNKYYADNVKGRFTISRDNSKNTLYLQMNSLRAEDTAVYYCAKDPAWGLRLGESSSYDFDIWGQGTMVTVSS	0.0
single VH domain antibody 1.11 (VHH, Human single VH domain antibody (Humabody)) VHH: EVQLLESGGGLVQPGGSLRLSCAASGFSFSSYALSWVRQAPGKGLEWVSSIGENNDTTDYADNVKGRFTISRDNSKNTLYLQMNSLRVEDTAVYYCVKDGVHWGQGTLVTVSS	1.0

A record lists single VH domain antibody 1.8 (VHH, Human single VH domain antibody (Humabody)) VHH: EVQLLESGGGLVQPGGSLRLSCAASGFSFSSYAMSWVRQAPGKGLEWVSSIGENDGTTDYADSVKGRFTISRDNSKNTLYLQMNSLRVEDTAVYYCVKDGVHWGQGTLVTVSS . Is its EC50 below 0.09 nM?
0.0

A record lists single VH domain antibody 1.18 (VHH, Human single VH domain antibody (Humabody)) VHH: EVQLLESGGGLVQPGGSLRLSCAASGFSFSSYALSWVRQAPGKGLEWVSSIGENNATTDYAASVKGRFTISRDNSKNTLYLQMNSLRVEDTAVYYCVKDGVHWGQGTLVTVSS . Is its EC50 below 0.09 nM?
1.0

A record lists single VH domain antibody 2.17 (VHH, Human single VH domain antibody (Humabody); C-terminal His tag, residues not tied) VHH: EVQLVESGGGVVQPGRSLRLSCAASGFSFSGYGMHWVRQAPGKGLEWVAYISYDASNKYYADNVKGRFTISRDNSKNTLYLQMNSLRAEDTAVYYCAKDPAWGLRLGESSSYDFDIWGQGTMVTVSS . Is its EC50 below 0.09 nM?
0.0

A record lists single VH domain antibody 1.16 (VHH, Human single VH domain antibody (Humabody)) VHH: EVQLLESGGGLVQPGGSLRLSCAASGFSFSSYALSWVRQAPGKGLEWVSSIGENNHTTDYADTVKGRFTISRDNSKNTLYLQMNSLRVEDTAVYYCVKDGVHWGQGTLVTVSS . Is its EC50 below 0.09 nM?
1.0

A record lists single VH domain antibody 1.13 (VHH, Human single VH domain antibody (Humabody)) VHH: EVQLLESGGGLVQPGGSLRLSCAASGFSFSSYALSWVRQAPGKGLEWVSSIGENNHTTDYAADVKGRFTISRDNSKNTLYLQMNSLRVEDTAVYYCVKDGVHWGQGTLVTVSS . Is its EC50 below 0.09 nM?
1.0

A record lists single VH domain antibody 2.1 (VHH, Human single VH domain antibody (Humabody); tested with a C-terminal His tag; 71-95; also called VH 2.1; VH2.1) VHH: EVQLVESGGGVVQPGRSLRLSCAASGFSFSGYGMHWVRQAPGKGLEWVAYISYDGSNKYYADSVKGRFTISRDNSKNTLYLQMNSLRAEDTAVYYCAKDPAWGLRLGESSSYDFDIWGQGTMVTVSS . Is its EC50 below 0.09 nM?
0.0
